This section presents compounds with their documented diameter of the inhibition zone (DIZ) values.
Tested on: Pseudomonas aeruginosa
test name: Antibacterial activity against Pseudomonas aeruginosa ATCC 27953 using 100 uL of test compound after 24 hrs by agar well diffusion method
Format: functional
Mention the unit after the number when you answer.

CC(O)(Cc1cn(CC(=O)c2ccccc2)nn1)c1ccc(S(=O)(=O)c2ccccc2)cc1 (centres undefined)
19 mm

Name the reported diameter of the inhibition zone (DIZ) value associated with the compound CC(Cc1cn(CC(=O)c2ccccc2)nn1)(OCc1cn(CC(=O)c2ccccc2)nn1)c1ccc(S(=O)(=O)c2ccccc2)cc1 (centres undefined) 19 mm

Would you mind doing CC(O)(Cc1cn(CC(=O)c2ccc(F)cc2)nn1)c1ccc(S(=O)(=O)c2ccccc2)cc1 (centres undefined) as well? 22 mm

Would you mind doing CC(Cc1cn(CC(=O)c2ccc(F)cc2)nn1)(OCc1cn(CC(=O)c2ccc(F)cc2)nn1)c1ccc(S(=O)(=O)c2ccccc2)cc1 (centres undefined) as well? 27 mm

* * *

System: Bacillus subtilis
test name: Antibacterial activity against Bacillus subtilis ATCC 6633 using 100 uL of test compound after 24 hrs by agar well diffusion method
Type: functional
This section presents compounds with their documented diameter of the inhibition zone (DIZ) values.

O=C(Cn1cc(COC(Cc2cn(CC(=O)c3ccc(F)cc3)nn2)c2ccc(S(=O)(=O)c3ccccc3)cc2)nn1)c1ccc(F)cc1 (stereo not given)
19 mm
O=C(Cn1cc(COC(Cc2cn(CC(=O)c3ccccc3)nn2)c2ccc(S(=O)(=O)c3ccccc3)cc2)nn1)c1ccccc1 (stereo not given)
17 mm
CC(Cc1cn(CC(=O)c2ccc(Br)cc2)nn1)(OCc1cn(CC(=O)c2ccc(Br)cc2)nn1)c1ccc(S(=O)(=O)c2ccccc2)cc1 (stereo not given)
14 mm
CC(O)(Cc1cn(CC(=O)c2ccc(F)cc2)nn1)c1ccc(S(=O)(=O)c2ccccc2)cc1 (stereo not given)
19 mm
O=C(Cn1cc(CC(O)c2ccc(S(=O)(=O)c3ccccc3)cc2)nn1)c1ccc(S(=O)(=O)c2ccccc2)cc1 (stereo not given)
20 mm
CC(O)(Cc1cn(CC(=O)c2ccccc2)nn1)c1ccc(S(=O)(=O)c2ccccc2)cc1 (stereo not given)
19 mm

Name the reported diameter of the inhibition zone (DIZ) value associated with the compound O=S(=O)(c1ccccc1)c1ccc(C(Cc2cn(Cc3ccccc3)nn2)OCc2cn(Cc3ccccc3)nn2)cc1 (stereo not given) 15 mm

Would you mind doing O=C(Cn1cc(CC(O)c2ccc(S(=O)(=O)c3ccccc3)cc2)nn1)c1ccc(F)cc1 (stereo not given) as well? 19 mm

Would you mind doing O=C(Cn1cc(COC(Cc2cn(CC(=O)c3ccc(Br)cc3)nn2)c2ccc(S(=O)(=O)c3ccccc3)cc2)nn1)c1ccc(Br)cc1 (stereo not given) as well? 17 mm

* * *

System: Candida albicans
test name: Antifungal activity against Candida albicans NRRL Y-477 using 100 uL of test compound after 48 hrs by agar well diffusion method
Format: functional
measurement kind: diameter of the inhibition zone (DIZ)

CC(O)(Cc1cn(CC(=O)c2ccccc2)nn1)c1ccc(S(=O)(=O)c2ccccc2)cc1 (stereo unspecified)
15 mm
O=C(Cn1cc(CC(O)c2ccc(S(=O)(=O)c3ccccc3)cc2)nn1)c1ccc(Br)cc1 (stereo unspecified)
20 mm
CC(Cc1cn(CC(=O)c2ccc(S(=O)(=O)c3ccccc3)cc2)nn1)(OCc1cn(CC(=O)c2ccc(S(=O)(=O)c3ccccc3)cc2)nn1)c1ccc(S(=O)(=O)c2ccccc2)cc1 (stereo unspecified)
15 mm
O=C(Cn1cc(COC(Cc2cn(CC(=O)c3ccc(S(=O)(=O)c4ccccc4)cc3)nn2)c2ccc(S(=O)(=O)c3ccccc3)cc2)nn1)c1ccc(S(=O)(=O)c2ccccc2)cc1 (stereo unspecified)
14 mm
CC(Cc1cn(CC(=O)c2ccccc2)nn1)(OCc1cn(CC(=O)c2ccccc2)nn1)c1ccc(S(=O)(=O)c2ccccc2)cc1 (stereo unspecified)
15 mm

Name the reported diameter of the inhibition zone (DIZ) value associated with the compound O=C(Cn1cc(COC(Cc2cn(CC(=O)c3ccccc3)nn2)c2ccc(S(=O)(=O)c3ccccc3)cc2)nn1)c1ccccc1 (stereo unspecified) 23 mm

Would you mind doing O=C(Cn1cc(CC(O)c2ccc(S(=O)(=O)c3ccccc3)cc2)nn1)c1ccc(F)cc1 (stereo unspecified) as well? 13 mm

* * *

Tested on: Bacillus subtilis
test name: Antibacterial activity against Bacillus subtilis ATCC 6633 using 100 uL of test compound after 24 hrs by agar well diffusion method
Format: functional
measurement kind: diameter of the inhibition zone (DIZ) (mm)
Reply with just the number (in mm).

O=S(=O)(c1ccccc1)c1ccc(C(O)Cc2cn(Cc3ccccc3)nn2)cc1 (stereo not given)
17
CC(O)(Cc1cn(CC(=O)c2ccc(Br)cc2)nn1)c1ccc(S(=O)(=O)c2ccccc2)cc1 (stereo not given)
17

Param readout = diameter of the inhibition zone (DIZ); param system = Bacillus subtilis; param query = CC(Cc1cn(CC(=O)c2ccc(F)cc2)nn1)(OCc1cn(CC(=O)c2ccc(F)cc2)nn1)c1ccc(S(=O)(=O)c2ccccc2)cc1 (stereo not given) ; response: value 15

Would you mind doing O=C(Cn1cc(COC(Cc2cn(CC(=O)c3ccc(S(=O)(=O)c4ccccc4)cc3)nn2)c2ccc(S(=O)(=O)c3ccccc3)cc2)nn1)c1ccc(S(=O)(=O)c2ccccc2)cc1 (stereo not given) as well? 14

Would you mind doing CC(O)(Cc1cn(Cc2ccccc2)nn1)c1ccc(S(=O)(=O)c2ccccc2)cc1 (stereo not given) as well? 16

* * *

System: Saccharomyces cerevisiae
test name: Antifungal activity against Saccharomyces cerevisiae after 48 hrs by two fold serial dilution method
Format: functional
Activity calls are given as the source filed them. The rule behind the calls is not given here.
measurement kind: MIC

Consider the reported MIC for these compounds:
CC(Cc1cn(CC(=O)c2ccc(S(=O)(=O)c3ccccc3)cc2)nn1)(OCc1cn(CC(=O)c2ccc(S(=O)(=O)c3ccccc3)cc2)nn1)c1ccc(S(=O)(=O)c2ccccc2)cc1 (configuration not stated)
inactive
O=C(Cn1cc(CC(O)c2ccc(S(=O)(=O)c3ccccc3)cc2)nn1)c1ccc(S(=O)(=O)c2ccccc2)cc1 (configuration not stated)
200 µg/mL
CC(O)(Cc1cn(CC(=O)c2ccc(S(=O)(=O)c3ccccc3)cc2)nn1)c1ccc(S(=O)(=O)c2ccccc2)cc1 (configuration not stated)
200 µg/mL
O=C(O)c1cn(C2CC2)c2cc(N3CCNCC3)c(F)cc2c1=O
inactive
O=C(Cn1cc(COC(Cc2cn(CC(=O)c3ccc(F)cc3)nn2)c2ccc(S(=O)(=O)c3ccccc3)cc2)nn1)c1ccc(F)cc1 (configuration not stated)
200 µg/mL

Name the reported MIC value associated with the compound O=C(Cn1cc(CC(O)c2ccc(S(=O)(=O)c3ccccc3)cc2)nn1)c1ccc(F)cc1 (configuration not stated) inactive

Would you mind doing CC(O)(Cc1cn(Cc2ccccc2)nn1)c1ccc(S(=O)(=O)c2ccccc2)cc1 (configuration not stated) as well? 200 µg/mL

* * *

System: Saccharomyces cerevisiae
test name: Antifungal activity against Saccharomyces cerevisiae after 48 hrs by two fold serial dilution method
Assay type: functional
Activity calls are given as the source filed them. No cut-off for these calls is given here.
measurement kind: MIC

Consider the reported MIC for these compounds:
CC(O)(Cc1cn(CC(=O)c2ccccc2)nn1)c1ccc(S(=O)(=O)c2ccccc2)cc1 (stereo not given)
inactive
O=C(Cn1cc(COC(Cc2cn(CC(=O)c3ccc(S(=O)(=O)c4ccccc4)cc3)nn2)c2ccc(S(=O)(=O)c3ccccc3)cc2)nn1)c1ccc(S(=O)(=O)c2ccccc2)cc1 (stereo not given)
inactive
O=C(Cn1cc(COC(Cc2cn(CC(=O)c3ccc(Br)cc3)nn2)c2ccc(S(=O)(=O)c3ccccc3)cc2)nn1)c1ccc(Br)cc1 (stereo not given)
200 µg/mL
O=S(=O)(c1ccccc1)c1ccc(C(Cc2cn(Cc3ccccc3)nn2)OCc2cn(Cc3ccccc3)nn2)cc1 (stereo not given)
200 µg/mL
CC(O)(Cc1cn(CC(=O)c2ccc(F)cc2)nn1)c1ccc(S(=O)(=O)c2ccccc2)cc1 (stereo not given)
inactive

Name the reported MIC value associated with the compound O=C(Cn1cc(CC(O)c2ccc(S(=O)(=O)c3ccccc3)cc2)nn1)c1ccccc1 (stereo not given) inactive

Would you mind doing CC(O)(Cc1cn(CC(=O)c2ccc(Br)cc2)nn1)c1ccc(S(=O)(=O)c2ccccc2)cc1 (stereo not given) as well? inactive

Would you mind doing CC(Cc1cn(CC(=O)c2ccc(Br)cc2)nn1)(OCc1cn(CC(=O)c2ccc(Br)cc2)nn1)c1ccc(S(=O)(=O)c2ccccc2)cc1 (stereo not given) as well? inactive

Would you mind doing O=S(=O)(c1ccccc1)c1ccc(C(O)Cc2cn(Cc3ccccc3)nn2)cc1 (stereo not given) as well? 200 µg/mL

Would you mind doing CC(Cc1cn(CC(=O)c2ccccc2)nn1)(OCc1cn(CC(=O)c2ccccc2)nn1)c1ccc(S(=O)(=O)c2ccccc2)cc1 (stereo not given) as well? 200 µg/mL

Would you mind doing O=C(Cn1cc(CC(O)c2ccc(S(=O)(=O)c3ccccc3)cc2)nn1)c1ccc(Br)cc1 (stereo not given) as well? 200 µg/mL

Would you mind doing `Clc1ccccc1C(c1ccccc1)(c1ccccc1)n1ccnc1` as well? 25 µg/mL

Would you mind doing CC(Cc1cn(Cc2ccccc2)nn1)(OCc1cn(Cc2ccccc2)nn1)c1ccc(S(=O)(=O)c2ccccc2)cc1 (stereo not given) as well? inactive

Would you mind doing CC(Cc1cn(CC(=O)c2ccc(F)cc2)nn1)(OCc1cn(CC(=O)c2ccc(F)cc2)nn1)c1ccc(S(=O)(=O)c2ccccc2)cc1 (stereo not given) as well? inactive

Would you mind doing O=C(Cn1cc(COC(Cc2cn(CC(=O)c3ccccc3)nn2)c2ccc(S(=O)(=O)c3ccccc3)cc2)nn1)c1ccccc1 (stereo not given) as well? 200 µg/mL
